Target: Bcl-2-like protein 10 [11-204] (Homo sapiens, UniProt Q9HD36)
Construct: 11-204
Sequence (Q9HD36 11-204): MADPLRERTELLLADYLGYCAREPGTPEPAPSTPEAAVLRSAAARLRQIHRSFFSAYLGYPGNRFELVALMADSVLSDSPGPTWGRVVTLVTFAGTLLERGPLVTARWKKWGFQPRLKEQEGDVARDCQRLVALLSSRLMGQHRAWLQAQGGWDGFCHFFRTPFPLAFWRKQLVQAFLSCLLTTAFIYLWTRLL
Test: Bcl-B Bim peptide interaction hit potency – biochemical, dose response, multiplexed HTS hits, confirmation (AID 2077)
Details: inactive by the depositor's call
Give pEC50 for every item shown.
Give bare numbers, as −log10 of the molar value.

Cc1cc(-c2cc(-c3ccc(Cl)cc3)nc(N)c2C#N)co1 : 4.82
O=C(NCc1ccccc1)c1ccc2nc(-c3ccco3)c(-c3ccco3)nc2c1 : 4.50
Clc1nc(NCc2cccnc2)nc(N2CCOCC2)n1 [MLS000121154] : 4.87
O=c1[nH]c(O)c(Cc2ccc(-c3cc(Cl)ccc3[N+](=O)[O-])o2)c(=O)[nH]1 : 4.44

Turning to the following molecule.
Req: Consider the molecule COc1ccccc1-n1c(-c2ccccc2)c[nH]c1=S [MLS001007615] and give its measured pEC50.
Resp: 4.61
